We begin with a simple list: items and their reported inhibition at 0.1 µM.
- systemTested: ALK kinase (Homo sapiens, UniProt Q9UM73)
- assayComment: ALK inhibition activity by Caliper assay
- Assay type: biochemical
- runParameters: compound 100 nM
- Sequence (Q9UM73 19-1620): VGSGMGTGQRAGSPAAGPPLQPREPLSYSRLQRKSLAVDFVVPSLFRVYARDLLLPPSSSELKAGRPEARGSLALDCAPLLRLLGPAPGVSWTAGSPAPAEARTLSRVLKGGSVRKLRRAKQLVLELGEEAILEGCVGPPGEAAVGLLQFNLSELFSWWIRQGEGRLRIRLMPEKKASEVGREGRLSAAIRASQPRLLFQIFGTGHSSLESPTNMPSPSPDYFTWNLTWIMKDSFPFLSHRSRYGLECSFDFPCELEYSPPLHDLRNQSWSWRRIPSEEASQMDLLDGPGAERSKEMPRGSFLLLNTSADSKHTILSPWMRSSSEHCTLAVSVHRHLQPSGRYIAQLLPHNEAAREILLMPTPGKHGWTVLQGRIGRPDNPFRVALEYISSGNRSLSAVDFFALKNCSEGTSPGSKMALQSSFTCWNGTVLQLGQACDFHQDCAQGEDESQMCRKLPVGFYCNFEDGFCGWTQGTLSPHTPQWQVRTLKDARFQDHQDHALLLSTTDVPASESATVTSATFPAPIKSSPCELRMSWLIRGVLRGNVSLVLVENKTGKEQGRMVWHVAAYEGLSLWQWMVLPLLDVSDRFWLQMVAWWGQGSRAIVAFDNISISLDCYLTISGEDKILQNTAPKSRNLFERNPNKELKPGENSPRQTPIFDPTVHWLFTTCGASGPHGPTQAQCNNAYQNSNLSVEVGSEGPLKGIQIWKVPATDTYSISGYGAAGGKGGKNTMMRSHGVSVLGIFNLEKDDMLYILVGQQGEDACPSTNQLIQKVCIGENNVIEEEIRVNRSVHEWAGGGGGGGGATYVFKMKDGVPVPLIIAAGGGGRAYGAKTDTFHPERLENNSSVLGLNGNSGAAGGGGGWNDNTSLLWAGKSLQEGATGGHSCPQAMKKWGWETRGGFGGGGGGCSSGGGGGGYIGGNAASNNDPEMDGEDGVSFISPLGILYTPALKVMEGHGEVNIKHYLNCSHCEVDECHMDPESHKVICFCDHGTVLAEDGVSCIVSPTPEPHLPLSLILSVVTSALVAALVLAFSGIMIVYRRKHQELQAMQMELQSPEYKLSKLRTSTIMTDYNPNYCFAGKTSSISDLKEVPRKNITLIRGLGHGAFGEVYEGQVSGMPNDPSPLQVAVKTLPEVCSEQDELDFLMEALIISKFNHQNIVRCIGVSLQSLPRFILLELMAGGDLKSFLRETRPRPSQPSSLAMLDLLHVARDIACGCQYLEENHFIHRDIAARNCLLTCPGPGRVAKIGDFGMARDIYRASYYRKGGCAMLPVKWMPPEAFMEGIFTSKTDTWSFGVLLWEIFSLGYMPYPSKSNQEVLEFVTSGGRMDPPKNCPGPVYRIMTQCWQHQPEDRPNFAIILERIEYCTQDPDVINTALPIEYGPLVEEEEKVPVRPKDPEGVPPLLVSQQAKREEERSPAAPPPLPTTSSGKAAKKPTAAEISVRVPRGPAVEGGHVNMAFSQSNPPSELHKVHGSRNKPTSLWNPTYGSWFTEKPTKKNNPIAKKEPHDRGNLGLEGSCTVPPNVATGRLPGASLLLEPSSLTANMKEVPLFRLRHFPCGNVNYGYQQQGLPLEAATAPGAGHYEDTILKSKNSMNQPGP

{"compound": "Cc1cc(Nc2ncc(Cl)c(Nc3ccccc3S(=O)(=O)C(C)C)n2)c(OC(C)C)cc1C1CCN(S(=O)(=O)CCCCCOc2cccc3c2C(=O)N(C2CCC(=O)NC2=O)C3=O)CC1 (stereo not shown)", "systemTested": "ALK kinase (Homo sapiens, UniProt Q9UM73)", "inhibition at 0.1 µM, %": 69}
{"compound": "Cc1cc(Nc2ncc(Cl)c(Nc3ccccc3S(=O)(=O)C(C)C)n2)c(OC(C)C)cc1C1CCN(CCCCCC(=O)Nc2cccc3c2C(=O)N(C2CCC(=O)NC2=O)C3=O)CC1 (stereo not shown)", "systemTested": "ALK kinase (Homo sapiens, UniProt Q9UM73)", "inhibition at 0.1 µM, %": 98}
{"compound": "Cc1cc(Nc2ncc(Cl)c(Nc3ccccc3S(=O)(=O)C(C)C)n2)c(OC(C)C)cc1C1CCN(CCOCCOCCOCCNc2cccc3c2C(=O)N(C2CCC(=O)NC2=O)C3=O)CC1 (stereo not shown)", "systemTested": "ALK kinase (Homo sapiens, UniProt Q9UM73)", "inhibition at 0.1 µM, %": 89}
{"compound": "Cc1cc(Nc2ncc(Cl)c(Nc3ccccc3S(=O)(=O)C(C)C)n2)c(OC(C)C)cc1C1CCN(CCOCCOCCNc2cccc3c2C(=O)N(C2CCC(=O)NC2=O)C3=O)CC1 (stereo not shown)", "systemTested": "ALK kinase (Homo sapiens, UniProt Q9UM73)", "inhibition at 0.1 µM, %": 98}
{"compound": "Cc1cc(Nc2ncc(Cl)c(Nc3ccccc3S(=O)(=O)C(C)C)n2)c(OC(C)C)cc1C1CCN(C(=O)COCCOCCNc2cccc3c2C(=O)N(C2CCC(=O)NC2=O)C3=O)CC1 (stereo not shown)", "systemTested": "ALK kinase (Homo sapiens, UniProt Q9UM73)", "inhibition at 0.1 µM, %": 99}
{"compound": "Cc1cc(Nc2ncc(Cl)c(Nc3ccccc3S(=O)(=O)C(C)C)n2)c(OC(C)C)cc1C1CCN(CCOCCOCCOCCOc2cccc3c2C(=O)N(C2CCC(=O)NC2=O)C3=O)CC1 (stereo not shown)", "systemTested": "ALK kinase (Homo sapiens, UniProt Q9UM73)", "inhibition at 0.1 µM, %": 95}
{"compound": "Cc1cc(Nc2ncc(Cl)c(Nc3ccccc3S(=O)(=O)C(C)C)n2)c(OC(C)C)cc1C1CCN(CCOCCOCCOc2cccc3c2C(=O)N(C2CCC(=O)NC2=O)C3=O)CC1 (stereo not shown)", "systemTested": "ALK kinase (Homo sapiens, UniProt Q9UM73)", "inhibition at 0.1 µM, %": 97}

* * *

- Tested on: SU-DHL-1 cells
- assayComment: Inhibition of proliferation of SU-DHL-1 cells by CTG assay
- Format: cell-based
- runParameters: Homo sapiens, compound 100 μM, 72 hours
# maps each entry to its inhibition at 100 µM

{"molecule": "Cc1cc(Nc2ncc(Cl)c(Nc3ccccc3S(=O)(=O)C(C)C)n2)c(OC(C)C)cc1C1CCN(CCOCCOCCOCCOc2cccc3c2C(=O)N(C2CCC(=O)NC2=O)C3=O)CC1 (centres unmarked) [Compound 15]", "inhibition at 100 µM [%]": 100}
{"molecule": "Cc1cc(Nc2ncc(Cl)c(Nc3ccccc3S(=O)(=O)C(C)C)n2)c(OC(C)C)cc1C1CCN(CCOCCOCCOc2cccc3c2C(=O)N(C2CCC(=O)NC2=O)C3=O)CC1 (centres unmarked) [Compound 7]", "inhibition at 100 µM [%]": 98}
{"molecule": "Cc1cc(Nc2ncc(Cl)c(Nc3ccccc3S(=O)(=O)C(C)C)n2)c(OC(C)C)cc1C1CCN(CCCCCC(=O)Nc2cccc3c2C(=O)N(C2CCC(=O)NC2=O)C3=O)CC1 (centres unmarked) [Compound 3]", "inhibition at 100 µM [%]": 72}
{"molecule": "Cc1cc(Nc2ncc(Cl)c(Nc3ccccc3S(=O)(=O)C(C)C)n2)c(OC(C)C)cc1C1CCN(CCOCCOCCOCCNc2cccc3c2C(=O)N(C2CCC(=O)NC2=O)C3=O)CC1 (centres unmarked) [Compound 14]", "inhibition at 100 µM [%]": 99}
{"molecule": "Cc1cc(Nc2ncc(Cl)c(Nc3ccccc3S(=O)(=O)C(C)C)n2)c(OC(C)C)cc1C1CCN(CCOCCOCCNc2cccc3c2C(=O)N(C2CCC(=O)NC2=O)C3=O)CC1 (centres unmarked) [Compound 45]", "inhibition at 100 µM [%]": 97}

* * *

Known inhibition at 1 µM of a selection of molecules
- systemTested: UniProt:Q9UM73
- assayComment: ALK protein degradation activity by Western blot in H2228 cells
- Format: cell-based
- Set-up: H2228 cell lines (human non-small cell line lung cancer cells, available from ATCC); host or cells: H2228 (human non-small cell lung cancer cells); the other entry of the earlier key: EML4 (Q9HC35, Echinoderm microtubule-associated protein-like 4)
- runParameters: NCI-H2228, compound 1 μM, treatment for 24 hours, degradation rate by Western blot
- Sequence (Q9UM73 with tags, fused parts or gaps): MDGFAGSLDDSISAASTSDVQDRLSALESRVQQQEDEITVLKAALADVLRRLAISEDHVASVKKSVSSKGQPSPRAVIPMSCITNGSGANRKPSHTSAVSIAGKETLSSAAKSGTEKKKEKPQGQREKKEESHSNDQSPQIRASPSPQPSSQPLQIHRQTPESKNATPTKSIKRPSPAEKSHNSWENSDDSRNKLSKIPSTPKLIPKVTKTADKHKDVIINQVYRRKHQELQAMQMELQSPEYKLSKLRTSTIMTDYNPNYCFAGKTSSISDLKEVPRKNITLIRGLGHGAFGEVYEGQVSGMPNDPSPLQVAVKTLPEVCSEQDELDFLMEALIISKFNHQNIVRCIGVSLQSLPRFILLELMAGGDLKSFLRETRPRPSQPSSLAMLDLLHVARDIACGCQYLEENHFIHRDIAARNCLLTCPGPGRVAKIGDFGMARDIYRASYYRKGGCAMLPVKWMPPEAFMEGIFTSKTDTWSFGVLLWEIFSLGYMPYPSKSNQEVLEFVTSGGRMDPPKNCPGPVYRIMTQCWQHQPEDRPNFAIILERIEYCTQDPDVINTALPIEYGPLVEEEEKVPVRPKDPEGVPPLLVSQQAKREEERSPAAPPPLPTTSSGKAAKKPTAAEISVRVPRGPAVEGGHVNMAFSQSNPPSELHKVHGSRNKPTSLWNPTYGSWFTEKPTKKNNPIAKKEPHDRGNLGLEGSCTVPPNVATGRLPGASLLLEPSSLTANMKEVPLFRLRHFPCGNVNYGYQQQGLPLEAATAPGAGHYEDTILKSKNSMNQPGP
observedProperty: inhibition at 1 µM

{"molecule": "Cc1cc(Nc2ncc(Cl)c(Nc3ccccc3S(=O)(=O)C(C)C)n2)c(OC(C)C)cc1C1CCN(CCCOc2cccc3c2C(=O)N(C2CCC(=O)NC2=O)C3=O)CC1 (centres unmarked)", "dataValue": "50 to 90%"}
{"molecule": "Cc1cc(Nc2ncc(Cl)c(Nc3ccccc3S(=O)(=O)C(C)C)n2)c(OC(C)C)cc1C1CCN(CCCC(=O)Nc2cccc3c2C(=O)N(C2CCC(=O)NC2=O)C3=O)CC1 (centres unmarked)", "dataValue": "> 90%"}
{"molecule": "Cc1cc(Nc2ncc(Cl)c(Nc3ccccc3S(=O)(=O)C(C)C)n2)c(OC(C)C)cc1C1CCN(CCCCCC(=O)Nc2cccc3c2C(=O)N(C2CCC(=O)NC2=O)C3=O)CC1 (centres unmarked)", "dataValue": "> 90%"}
{"molecule": "Cc1cc(Nc2ncc(Cl)c(Nc3ccccc3S(=O)(=O)C(C)C)n2)c(OC(C)C)cc1C1CCN(CCOCCOCCOCCOc2cccc3c2C(=O)N(C2CCC(=O)NC2=O)C3=O)CC1 (centres unmarked)", "dataValue": "> 90%"}
{"molecule": "Cc1cc(Nc2ncc(Cl)c(Nc3ccccc3S(=O)(=O)C(C)C)n2)c(OC(C)C)cc1C1CCN(CCOCCOCCOc2cccc3c2C(=O)N(C2CCC(=O)NC2=O)C3=O)CC1 (centres unmarked)", "dataValue": "> 90%"}
{"molecule": "Cc1cc(Nc2ncc(Cl)c(Nc3ccccc3S(=O)(=O)C(C)C)n2)c(OC(C)C)cc1C1CCN(CC(=O)NCCOCCOCCOCCOCCOCCNc2cccc3c2C(=O)N(C2CCC(=O)NC2=O)C3=O)CC1 (centres unmarked)", "dataValue": "50 to 90%"}
{"molecule": "Cc1cc(Nc2ncc(Cl)c(Nc3ccccc3S(=O)(=O)C(C)C)n2)c(OC(C)C)cc1C1CCN(CC(=O)NCCOCCOCCOCCOCCNc2cccc3c2C(=O)N(C2CCC(=O)NC2=O)C3=O)CC1 (centres unmarked)", "dataValue": "50 to 90%"}
{"molecule": "Cc1cc(Nc2ncc(Cl)c(Nc3ccccc3S(=O)(=O)C(C)C)n2)c(OC(C)C)cc1C1CCN(CCOCCOCCOCCC(=O)Nc2cccc3c2C(=O)N(C2CCC(=O)NC2=O)C3=O)CC1 (centres unmarked)", "dataValue": "> 90%"}
{"molecule": "Cc1cc(Nc2ncc(Cl)c(Nc3ccccc3S(=O)(=O)C(C)C)n2)c(OC(C)C)cc1C1CCN(CC(=O)NCCOCCOc2cccc3c2C(=O)N(C2CCC(=O)NC2=O)C3=O)CC1 (centres unmarked)", "dataValue": "> 90%"}
{"molecule": "Cc1cc(Nc2ncc(Cl)c(Nc3ccccc3S(=O)(=O)C(C)C)n2)c(OC(C)C)cc1C1CCN(CCCCNc2cccc3c2C(=O)N(C2CCC(=O)NC2=O)C3=O)CC1 (centres unmarked)", "dataValue": "50 to 90%"}
{"molecule": "Cc1cc(Nc2ncc(Cl)c(Nc3ccccc3S(=O)(=O)C(C)C)n2)c(OC(C)C)cc1C1CCN(CC(=O)NCCOc2cccc3c2C(=O)N(C2CCC(=O)NC2=O)C3=O)CC1 (centres unmarked)", "dataValue": "> 90%"}
{"molecule": "Cc1cc(Nc2ncc(Cl)c(Nc3ccccc3S(=O)(=O)C(C)C)n2)c(OC(C)C)cc1C1CCN(CCOCCOCCC(=O)Nc2cccc3c2C(=O)N(C2CCC(=O)NC2=O)C3=O)CC1 (centres unmarked)", "dataValue": "> 90%"}
{"molecule": "Cc1cc(Nc2ncc(Cl)c(Nc3ccccc3S(=O)(=O)C(C)C)n2)c(OC(C)C)cc1C1CCN(CC(=O)NCCOCCOCCOc2cccc3c2C(=O)N(C2CCC(=O)NC2=O)C3=O)CC1 (centres unmarked)", "dataValue": "> 90%"}
{"molecule": "Cc1cc(Nc2ncc(Cl)c(Nc3ccccc3S(=O)(=O)C(C)C)n2)c(OC(C)C)cc1C1CCN(CCOCCOCCOCCOCCOCCOc2cccc3c2C(=O)N(C2CCC(=O)NC2=O)C3=O)CC1 (centres unmarked)", "dataValue": "50 to 90%"}
{"molecule": "Cc1cc(Nc2ncc(Cl)c(Nc3ccccc3S(=O)(=O)C(C)C)n2)c(OC(C)C)cc1C1CCN(CCOCCOCCOCCOCCOc2cccc3c2C(=O)N(C2CCC(=O)NC2=O)C3=O)CC1 (centres unmarked)", "dataValue": "> 90%"}
{"molecule": "Cc1cc(Nc2ncc(Cl)c(Nc3ccccc3S(=O)(=O)C(C)C)n2)c(OC(C)C)cc1C1CCN(CC(=O)NCCOCCOCCNc2cccc3c2C(=O)N(C2CCC(=O)NC2=O)C3=O)CC1 (centres unmarked)", "dataValue": "> 90%"}
{"molecule": "Cc1cc(Nc2ncc(Cl)c(Nc3ccccc3S(=O)(=O)C(C)C)n2)c(OC(C)C)cc1C1CCN(CCCCC(=O)Nc2cccc3c2C(=O)N(C2CCC(=O)NC2=O)C3=O)CC1 (centres unmarked)", "dataValue": "> 90%"}
{"molecule": "Cc1cc(Nc2ncc(Cl)c(Nc3ccccc3S(=O)(=O)C(C)C)n2)c(OC(C)C)cc1C1CCN(CCOCCNc2cccc3c2C(=O)N(C2CCC(=O)NC2=O)C3=O)CC1 (centres unmarked)", "dataValue": "> 90%"}
{"molecule": "Cc1cc(Nc2ncc(Cl)c(Nc3ccccc3S(=O)(=O)C(C)C)n2)c(OC(C)C)cc1C1CCN(CCC(=O)Nc2cccc3c2C(=O)N(C2CCC(=O)NC2=O)C3=O)CC1 (centres unmarked)", "dataValue": "> 90%"}
{"molecule": "Cc1cc(Nc2ncc(Cl)c(Nc3ccccc3S(=O)(=O)C(C)C)n2)c(OC(C)C)cc1C1CCN(CCOCCOCCNc2cccc3c2C(=O)N(C2CCC(=O)NC2=O)C3=O)CC1 (centres unmarked)", "dataValue": "> 90%"}
